pKi: −log10 of the molar value.
Kindly find below pKi information for Urokinase-type plasminogen activator (Homo sapiens, UniProt P00749) taken from the literature.

Examples with their reported pKi follow.
>  <compound-structure-string>
N=C(N)c1ccc(Oc2ccc(N)c(Oc3ccc(C(=N)N)cc3)n2)cc1

>  <target-system>
Urokinase-type plasminogen activator (Homo sapiens, UniProt P00749)

>  <attribute-measured>
pKi

>  <observed-result>
< 5.00

$$$$
>  <compound-structure-string>
CC(C)CC1=NCCc2ccc(NC(=O)c3ccc4cc(C(=N)N)ccc4c3)cc21

>  <target-system>
Urokinase-type plasminogen activator (Homo sapiens, UniProt P00749)

>  <attribute-measured>
pKi

>  <observed-result>
6.79

$$$$

Please look at the following compound next.
Look at this compound and give its reported pKi. `NCc1ccc(Cl)cc1CNC(=O)[C@@H]1CCCN1C(=O)[C@@H](CCc1cccc[n+]1[O-])NS(=O)(=O)CC(=O)O`
< 5.30
